# Test system: K-562 leukemia
# Assay Method Text: NCI-60 one-dose screen, 48 h
# Assay Context: 10 µM unless noted
The panel holds about 83,000 compounds, 20% with a hit somewhere; the sample as a whole holds those more often. Active and inactive are the calls of the source. Rule for the calls: active = growth percent below 10; inactive = the rest.
Respond with a class label; see true for active, false for inactive

## Input # outcome recorded in this test, key = OCCNc1nc(NCCO)nc(Nc2ccc(C3=NN(c4ccc(Cl)cc4)C(c4ccc(Cl)cc4)C3)cc2)n1 (centres undefined)
## Output false

## Input // query: COc1cc(C2CC(c3ccc(Nc4nc(NCCO)nc(NCCO)n4)cc3)=NN2c2cc(Cl)cc(Cl)c2)cc(OC)c1OC (centres undefined)
## Output true

## Input // query: COC(=O)c1oc2c(C(=O)/C=C/c3ccc(OC)cc3)c(OCCCN3CCCCC3)ccc2c1C
## Output true

## Input // query: C=C(C)[C@@H]1CC[C@]2(C(=O)OCCOCCOCC[P+](c3ccccc3)(c3ccccc3)c3ccccc3)CC[C@]3(C)[C@H](CC[C@@H]4[C@@]5(C)CC[C@H](OC(=O)C(Cl)Cl)C(C)(C)[C@@H]5CC[C@]43C)[C@@H]12
## Output true

----------
# Tested on: ACHN renal
# Assay Method Text: NCI-60 one-dose screen, 48 h
# Assay Context: 10 µM unless noted
# Protocol: Growth inhibition of the ACHN human tumor cell line is measured as a screen for anti-cancer activity. Cells are grown in 96 well plates and exposed to the test compound for 48 hours. Compounds are tested at a single concentration, which is 10^-5 M for most compounds. The reported endpoint is percent growth (GI% or GIPRCNT), where numbers from 0 - 100% represent growth inhibition, and numbers from -100% - 0 represent cell death. For example, a value of 40 represents 60% growth inhibition. […]
Compounds without any hit were thinned out: in the full panel of roughly 83,000, 20% have a hit. The source made the active and inactive calls. How the source made its calls: active means growth percent below 10; inactive means the rest.
Respond with a class label; see active, inactive

## Input # outcome recorded in this test, key = [2H]c1cc2c(c([2H])c1F)/C(=C/c1[nH]c(C)c(C(=O)NCCN(CC)CC)c1C)C(=O)N2
## Output inactive

## Input // query: Cc1nc2sc(C(=O)Nc3cccc4ccccc34)c(N)c2cc1C(C)O (stereo not drawn)
## Output inactive

## Input // query: COc1cc(-c2csc(NC(=O)Nc3cc(Cl)cc(Cl)c3)n2)cc(OC)c1OC
## Output active

## Input // query: C#Cc1cccc(Nc2ncnc3ccc(NC(=O)c4ccccc4)cc23)c1
## Output inactive

## Input // query: Cc1[nH]c(N=Nc2ccccc2)nc1N=Nc1ccccc1
## Output active

## Input // query: C1=CC2=CC=C3C=CC=C4C(c5nc6c7ccccc7c7ccccc7c6[nH]5)=CC(=C1)C2C34 (stereo not drawn)
## Output inactive

## Input // query: COc1ccc2nc3c(n2c1)C(=O)C(=O)c1ccccc1-3
## Output active

## Input // query: COc1cc(C2=NN(c3ccccc3)C(c3cccc(Nc4ccnc5cc(C(F)(F)F)ccc45)c3)C2)cc(OC)c1OC (stereo not drawn)
## Output inactive

## Input // query: COc1ccc(Nc2cc(NC(=O)CNc3cc(OC)c(Cl)c(OC)c3Cl)ncn2)cc1
## Output inactive

## Input // query: N#Cc1ccc(N2Cc3cc(Cl)ccc3OC3=C2C(=O)N(Cc2ccc(F)cc2)C3=O)cc1
## Output active

## Input // query: Oc1ccc(CNNc2ccnc3c(O)cccc23)c2cccnc12
## Output inactive

## Input // query: O=c1[nH]nc(-c2ccccc2)c2sc(NC(=S)Nc3ccc(Cl)cc3)nc12
## Output inactive

## Input // query: O=c1[nH]c2ccccc2cc1-c1nc2ccncc2[nH]1
## Output inactive

## Input // query: C=C1C(=O)O[C@H]2[C@H]1CC/C(COC(=O)CCCCCCCCC(=O)OC/C1=C/CC[C@@]3(C)O[C@H]3[C@H]3OC(=O)C(=C)[C@@H]3CC1)=C\CC[C@@]1(C)O[C@@H]21
## Output active

## Input // query: O=C1[C@@H](OS(=O)(=O)CC(F)(F)F)[C@H](c2ccc(F)cn2)N1c1cc2c3ccccc3ccc2c2ccccc12
## Output inactive

## Input // query: C#C[C@@]1(O)[C@@H](CO)O[C@@H](n2cnc3c(-c4ccccc4)ncnc32)[C@@H]1O
## Output inactive

## Input // query: COc1ccc2[nH]c(=O)c(/C=C/C(=O)/C=C/c3ccc(O)c(OC)c3)cc2c1
## Output inactive

## Input // query: CCOC(=O)CC[C@H](NC(=O)c1ccc(NC)c2ccccc12)C(=O)OCC
## Output inactive
